The sequences listed here are annotated with their recombinant UMI read abundance (log10).
- assay_notes: recombinant UMI read abundance after kanamycin selection (control-corrected) (log10(CPM+1)); higher = more efficient recombination; extreme values may be limits of the assay; sequences stand for … in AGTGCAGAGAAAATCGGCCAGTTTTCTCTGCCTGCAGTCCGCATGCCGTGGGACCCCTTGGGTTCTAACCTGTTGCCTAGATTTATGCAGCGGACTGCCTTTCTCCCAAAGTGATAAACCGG…AGGTTGGTTTCACT; site = the 11-nt donor

| chain | recombinant UMI read abundance (log10) |
| --- | --- |
| CTCCACACATGGACCGGTTTTCCCGGTAATCCGTATTTGGG (site CTCCACACTCC) | 0.0377 |
| CGATCACCATGGACCGGTTTTCCCGGTAATCCGTATTTGCC (site CGATCATCTAG) | 0 |
| ATCTTTACATGGACCGGTTTTCCCGGTAATCCGTATTTGAC (site ATCTGTACTGT) | 0.247 |
| ACCTGGACATGGACCGGTTTTCCCGGTAATCCGTATTTGCA (site ACCTGGACTTG) | 1.82 |
| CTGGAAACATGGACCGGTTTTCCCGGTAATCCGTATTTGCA (site CTGGAGACTTG) | 1.43 |
| ATGAGCGCATGGACCGGTTTTCCCGGTAATCCGTATTTGGG (site ATGAGCGCTCC) | 0.00562 |
| TGCCCCGCATGGACCGGTTTTCCCGGTAATCCGTATTTGTT (site TGCCCCGCTAA) | 0.0107 |
| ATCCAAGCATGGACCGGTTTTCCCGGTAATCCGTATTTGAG (site ATCCTAGCTCT) | 0.357 |
| CAGTGGACATGGACCGGTTTTCCCGGTAATCCGTATTTGGG (site CAGTAGACTCC) | 0.368 |
| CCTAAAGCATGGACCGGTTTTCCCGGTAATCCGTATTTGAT (site CCTAAAGCTGT) | 0 |
| CCGTTAGCATGGACCGGTTTTCCCGGTAATCCGTATTTGTT (site CCGTTAGCTTA) | 0.00339 |
| CTCGTCTCATGGACCGGTTTTCCCGGTAATCCGTATTTGAC (site CTCGTCTCTGT) | 1.54 |
| GCGCGCGCATGGACCGGTTTTCCCGGTAATCCGTATTTGGA (site GCGCGCGCTTC) | 0.527 |
| TGATCGACATGGACCGGTTTTCCCGGTAATCCGTATTTGTT (site CGATCGACTAA) | 0.0214 |
| GAAGGTACATGGACCGGTTTTCCCGGTAATCCGTATTTGAC (site GAAGGTACTGT) | 2.28 |
| CGAGTACCATGGACCGGTTTTCCCGGTAATCCGTATTTGGG (site CGAGAACCTCC) | 0 |
| AGATGTACATGGACCGGTTTTCCCGGTAATCCGTATTTGAC (site AGATGTACTGT) | 1.96 |
| CGCAATGCATGGACCGGTTTTCCCGGTAATCCGTATTTGTT (site CGCAATGCTAA) | 2.14 |

====

The sequences listed here are annotated with their recombinant barcode read abundance (log10).
- assay_notes: recombinant barcode read abundance after kanamycin selection (control-corrected) (log10(CPM+1)); higher = more efficient recombination; sequences stand for … in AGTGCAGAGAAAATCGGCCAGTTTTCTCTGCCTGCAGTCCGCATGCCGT…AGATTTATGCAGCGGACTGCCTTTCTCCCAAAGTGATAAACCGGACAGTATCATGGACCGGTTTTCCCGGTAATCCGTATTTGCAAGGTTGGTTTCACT; site = the 11-nt target
recorded_endpoint: recombinant barcode read abundance (log10)

| chain | value_observed |
| --- | --- |
| TGGGGTACTTGGGTTCTAACCTGTTGCCT (site TGGAGTACTAG) | 0.141 |
| ACGGCTACTTGGGTTCTAACCTGTTGCTT (site ACGGCTACTAA) | 0.83 |
| ATGTAGGCTTGGGTTCTAACCTGTTGCCT (site ATGTTAGCTAG) | 0.127 |
| CCTGGGCCTTGGGTTCTAACCTGTTGCCT (site CTTGGGCCTAG) | 0 |
| TCATGAACTTGGGTTCTAACCTGTTGCCT (site TCATGAACTAG) | 0.256 |
| CTACAGACTTGGGTTCTAACCTGTTGCGT (site CTACAGACTAC) | 1.81 |
| GACTATGCTTGGGTTCTAACCTGTTGCCT (site GACTATGCTAG) | 0.461 |
| GAGCGCACTTGGGTTCTAACCTGTTGCGG (site GAGCGCACTCC) | 2.13 |
| TGTAGTCCTTGGGTTCTAACCTGTTGCTT (site TGTAGTCCTAA) | 0.0506 |
| TATTGGACTTGGGTTCTAACCTGTTGCAT (site TATTGGACTCT) | 0.153 |
| GTTTCAACTTGGGTTCTAACCTGTTGCCA (site CAACACCCTAT) | 0.0582 |
| ACTTAGACTTGGGTTCTAACCTGTTGCCT (site ACTTAGACTAG) | 1.02 |
| GAGCTGCCTTGGGTTCTAACCTGTTGCTT (site GAGCTGCCTAA) | 1.3 |
| TAGTCCTCTTGGGTTCTAACCTGTTGCTA (site TAGTCCTCTAA) | 0.0289 |
| GGTTGTCCTTGGGTTCTAACCTGTTGCCT (site GGTTGTCCTAG) | 0.328 |
| CGTTCCTCTTGGGTTCTAACCTGTTGCCT (site CATTCCTCTAG) | 0.0798 |
| GACACAGCTTGGGTTCTAACCTGTTGCCT (site GAGACAGCTAG) | 0.118 |
| TTACATGCTTGGGTTCTAACCTGTTGCCT (site AAGATCACTCC) | 0.281 |
| GGTTCCTCTTGGGTTCTAACCTGTTGCCT (site GGATCGTCTAG) | 0.0714 |
| AGTTAATCTTGGGTTCTAACCTGTTGCTT (site AGTTAATCTAA) | 0.0371 |
| AATGTGTCTTGGGTTCTAACCTGTTGCCT (site AATGTGTCTAG) | 2.59 |
| TAGGGCACTTGGGTTCTAACCTGTTGCTA (site TAGGCGACTTA) | 0.875 |
| TGCGCTACTTGGGTTCTAACCTGTTGCCT (site TGCGCAACTAG) | 0.0205 |
| CCGCTATCTTGGGTTCTAACCTGTTGCCT (site CCGCTATCTAG) | 0.379 |
| ACCAGCCCTTGGGTTCTAACCTGTTGCTG (site TGATATTCTAG) | 0.0743 |
| GATTCTCCTTGGGTTCTAACCTGTTGCGT (site GATTCTCCTAG) | 0.141 |
| ATGGTGCCTTGGGTTCTAACCTGTTGCCT (site ATGGTGACTAG) | 0.098 |
| TGCGCTACTTGGGTTCTAACCTGTTGCCT (site TGCGCTACTAG) | 0.25 |
| TCCGACTCTTGGGTTCTAACCTGTTGCCG (site TCCGACTCTCG) | 1.55 |
| GACGTAACTTGGGTTCTAACCTGTTGCCT (site GAAGTAACTAG) | 0.0422 |
| CCGCCGGCTTGGGTTCTAACCTGTTGCCT (site CCGCCAGCTAG) | 0 |
| GCCAAGGCTTGGGTTCTAACCTGTTGCCT (site AGTTTCACTTA) | 0.0355 |
| CCTCTGCCTTGGGTTCTAACCTGTTGCCT (site CCTCTGCCTAG) | 0.855 |
| AGACATCCTTGGGTTCTAACCTGTTGCTT (site AGACTTCCTAA) | 0.195 |
| CCTGAATCTTGGGTTCTAACCTGTTGCCT (site CCTGATTCTAG) | 0.073 |
| CTCGAATCTTGGGTTCTAACCTGTTGCTT (site CTCGAATCTAA) | 0.897 |
| ACCGAGACTTGGGTTCTAACCTGTTGCCT (site ACCGGGACTAG) | 0.0279 |
| GAGCCGACTTGGGTTCTAACCTGTTGCCT (site GAGCTGACTAG) | 0.0365 |
| ATGAGGTCTTGGGTTCTAACCTGTTGCTC (site ATGAGGTCTGA) | 1.43 |
| ATGGGAGCTTGGGTTCTAACCTGTTGCGA (site ATGGGAGCTTC) | 1.14 |
| TAATGCCCTTGGGTTCTAACCTGTTGCCT (site TATTGCCCTAG) | 0.13 |
| GCCGGGTCTTGGGTTCTAACCTGTTGCTT (site GCTGGGTCTAA) | 0.337 |

====

The sequences listed here are annotated with their recombinant barcode read abundance (log10).
- assay_notes: recombinant barcode read abundance after kanamycin selection (control-corrected) (log10(CPM+1)); higher = more efficient recombination; sequences stand for … in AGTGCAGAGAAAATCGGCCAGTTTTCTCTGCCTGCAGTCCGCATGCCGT…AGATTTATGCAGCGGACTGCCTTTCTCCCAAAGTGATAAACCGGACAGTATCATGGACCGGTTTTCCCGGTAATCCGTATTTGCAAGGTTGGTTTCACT; site = the 11-nt target
recorded_endpoint: recombinant barcode read abundance (log10)

| chain | value_observed |
| --- | --- |
| GCTTACCCTTGGGTTCTAACCTGTTGCTA (site GCTTACCCTTA) | 0.36 |
| AGCCCTTCTTGGGTTCTAACCTGTTGCTT (site AGCCCTTCTAA) | 0.083 |
| AACATTGCTTGGGTTCTAACCTGTTGCCT (site AACAGTGCTAG) | 0.372 |
| CGTACCTCTTGGGTTCTAACCTGTTGCTC (site CGTACCTCTAA) | 0.056 |
| TAGCACCCTTGGGTTCTAACCTGTTGCCG (site TAGCACCCTGG) | 0.239 |
| TAGAAGACTTGGGTTCTAACCTGTTGCAT (site TATAAGACTGT) | 0.0979 |
| CAATCCTCTTGGGTTCTAACCTGTTGCCT (site CAATCCTCTAG) | 1.2 |
| GACCGTGCTTGGGTTCTAACCTGTTGCCT (site GACCGGGCTAG) | 0.268 |
| GTATATACTTGGGTTCTAACCTGTTGCTT (site GTATATACTAA) | 0.578 |
| CACCAACCTTGGGTTCTAACCTGTTGCCT (site CACCAAACTAG) | 0.112 |
| CTTACGGCTTGGGTTCTAACCTGTTGCCT (site CTTACAGCTAG) | 0.186 |
| CCGCTATCTTGGGTTCTAACCTGTTGCCT (site CCGATATCTAG) | 0.199 |
| CTGCGTGCTTGGGTTCTAACCTGTTGCCT (site CAGCGTGCTAG) | 0.503 |
| TCCTGTCCTTGGGTTCTAACCTGTTGCAT (site TCCTGTCCTAT) | 0.467 |
| CATTCACCTTGGGTTCTAACCTGTTGCCT (site GATTCACCTAG) | 0.0621 |
| ATCGATGCTTGGGTTCTAACCTGTTGCCT (site ATCTATTCTAG) | 0.0828 |
| ACGCGGCCTTGGGTTCTAACCTGTTGCCT (site ACGCGGCCTAG) | 0.103 |
| CTAGCAACTTGGGTTCTAACCTGTTGCTT (site CTAGCAGCTAT) | 0.124 |
| TACTAAGCTTGGGTTCTAACCTGTTGCGT (site TACTAAGCTAC) | 1.1 |
| CCAGATTCTTGGGTTCTAACCTGTTGCCT (site CTAGATTCTAG) | 0.144 |
| GGGGCGGCTTGGGTTCTAACCTGTTGCCT (site GGGGCGCCTAG) | 0.0428 |
